assay: Metabolic stability in monkey liver microsomes; assay type: in vitro ADME; details: monkey, liver microsomes, pH 7.4; phase I pathway; read-out: T ½ (min), monkey liver microsomes
outcomeMeasure: half-life at 0.5 μM (min)
Only the number, expressed in min, is required.

I'd like to know its half-life at 0.5 μM. The compound in question is Fc1ccc(-c2nccc3ccc(-c4ccc5[nH]ccc5c4)cc23)cc1 [6c]
9

Return reported half-life at 0.5 μM; argument: COc1cc(-c2nccc3ccc(-c4ccc5[nH]ccc5c4)cc23)cc(OC)c1OC [6a]
16

For c1cc2ccc(-c3ccc4[nH]ccc4c3)cc2c(-c2ccc3[nH]ccc3c2)n1 [6b, 1,7-Bis-(1H-indol-5-yl)-isoquinoline] , what is its reported half-life at 0.5 μM?
13

----------
tested on: DU 145; assay: SRB cytotoxicity assay, DU 145 prostate cancer cells; format: cell-based; conditions: Homo sapiens, Table 13, 96 h, read-out: IC50 ± SEM Du 145
pIC50: −log10 of the molar value.
outcomeMeasure: pIC50

Query for DU 145: what pIC50 does the record show for O=C(c1cccc(F)c1)c1cn(S(=O)(=O)c2ccccc2)c(-c2ccccc2)n1 [11ag] ?
< 5.00

----------
assay: Metabolic stability in rat liver microsomes; type: in vitro ADME; details: rat, liver microsomes, pH 7.4; Table 20; read-out: Half life in Rat liver microsome
Label scheme for half-life at 0.5 μM: lower than 30 min is false (0), 30 min and above is true (1).

Answer whether half-life at 0.5 μM of `COc1cc(C(=O)c2csc(-c3ccc(O)cc3)n2)cc(OC)c1OC` is greater than or equal to 30 min.
true (1)

For this molecule, is measured half-life at 0.5 μM 30 min or higher? COc1cc(C(=O)c2c[nH]c(-c3ccc(C)cc3)n2)cc(OC)c1OC [12da]
false (0)

// inclusive: half-life at 0.5 μM at least 30 min? input: `COc1cc(C(=O)c2cn(C)c(-c3ccc(C)cc3)n2)cc(OC)c1OC`
false (0)

Hello, I need to know if COc1cc(C(=O)c2c[nH]c(-c3ccc(Cl)cc3)n2)cc(OC)c1OC [12fa] has measured half-life at 0.5 μM not below 30 min. Thanks!
true (1)

Answer whether half-life at 0.5 μM of `COc1cc(C(=O)c2csc(-c3ccccc3)n2)cc(OC)c1OC` is greater than or equal to 30 min.
true (1)

----------
test: Metabolic stability in mouse liver microsomes; format: in vitro ADME; conditions: mouse, liver microsomes, pH 7.4, Table 20; read-out: Half life in Mouse liver microsome
Answer each item with its documented half-life at 0.5 μM.

Which half-life at 0.5 μM value belongs to COc1cc(C(=O)c2csc(-c3ccc(O)cc3)n2)cc(OC)c1OC [2l] ?
11 min

Please give the measured half-life at 0.5 μM for this compound: COc1cc(C(=O)c2csc(-c3ccccc3)n2)cc(OC)c1OC [1h]
< 5 min

Any idea what its half-life at 0.5 μM is? The compound is Fc1ccc(-c2nccc3ccc(-c4ccc5[nH]ccc5c4)cc23)cc1 [6c]
13 min

Look at this compound and give its reported half-life at 0.5 μM. COc1cc(-c2nccc3ccc(-c4ccc5[nH]ccc5c4)cc23)cc(OC)c1OC [6a]
3.43 min

Would you kindly share the measured half-life at 0.5 μM for COc1cc(C(=O)c2c[nH]c(-c3ccc(C)cc3)n2)cc(OC)c1OC [12da] ?
8 min

I would be grateful if you could share the reported half-life at 0.5 μM for COc1cc(C(=O)c2cn(C)c(-c3ccc(C)cc3)n2)cc(OC)c1OC [12dab] .
< 5 min

So what does the record say about half-life at 0.5 μM for c1cc2ccc(-c3ccc4[nH]ccc4c3)cc2c(-c2ccc3[nH]ccc3c2)n1 [6b, 1,7-Bis-(1H-indol-5-yl)-isoquinoline] ?
10 min

What half-life at 0.5 μM value was documented for this compound, COc1cc(C(=O)c2c[nH]c(-c3ccc(Cl)cc3)n2)cc(OC)c1OC [12fa] ?
23 min
